Test Details: Luminescence lifetime measurements
Format: physicochemical
Condition Details: degassed CH3CN, excitation at 355 nm
Quick list: τ/ns degassed (Lifetime) per entry.
Return type: number; implicit unit ns.

* COc1ccc(C=Cc2ccnc(-c3cc(C=Cc4ccc(OC)cc4)ccn3)c2)cc1.F[P-](F)(F)(F)(F)F.F[P-](F)(F)(F)(F)F.[Ru+2].c1ccc(-c2ccnc3c2ccc2c(-c4ccccc4)ccnc23)cc1.c1ccc(-c2ccnc3c2ccc2c(-c4ccccc4)ccnc23)cc1 | 679
* CN(C)c1ccc(/C=C/c2ccnc(-c3cc(/C=C/c4ccc(N(C)C)cc4)ccn3)c2)cc1.CN(C)c1ccc(/C=C/c2ccnc(-c3cc(/C=C/c4ccc(N(C)C)cc4)ccn3)c2)cc1.F[P-](F)(F)(F)(F)F.F[P-](F)(F)(F)(F)F.[Ru+2].c1ccc(-c2ccccn2)nc1 | 417
* COc1ccc(/C=C/c2ccnc(-c3cc(/C=C/c4ccc(OC)cc4)ccn3)c2)cc1.COc1ccc(/C=C/c2ccnc(-c3cc(/C=C/c4ccc(OC)cc4)ccn3)c2)cc1.F[P-](F)(F)(F)(F)F.F[P-](F)(F)(F)(F)F.[Ru+2].c1ccc(-c2ccccn2)nc1 | 231
* CN(C)c1ccc(/C=C/c2ccnc(-c3cc(/C=C/c4ccc(N(C)C)cc4)ccn3)c2)cc1.F[P-](F)(F)(F)(F)F.F[P-](F)(F)(F)(F)F.[Ru+2].c1ccc(-c2ccccn2)nc1.c1ccc(-c2ccccn2)nc1 | 405
* COc1ccc(/C=C/c2ccnc(-c3cc(/C=C/c4ccc(OC)cc4)ccn3)c2)cc1.F[P-](F)(F)(F)(F)F.F[P-](F)(F)(F)(F)F.[Ru+2].c1cnc2c(c1)ccc1cccnc12.c1cnc2c(c1)ccc1cccnc12 | 669

Consider the additional compound presented here.
# return recorded τ/ns degassed (Lifetime) for input CN(C)c1ccc(/C=C/c2ccnc(-c3cc(/C=C/c4ccc(N(C)C)cc4)ccn3)c2)cc1.F[P-](F)(F)(F)(F)F.F[P-](F)(F)(F)(F)F.[Ru+2].c1ccc(-c2ccnc3c2ccc2c(-c4ccccc4)ccnc23)cc1.c1ccc(-c2ccnc3c2ccc2c(-c4ccccc4)ccnc23)cc1
339

Data credit: patent US20220409727A1
